Test system: RPMI-8226 leukemia
Experiment: NCI-60 one-dose screen, 48 h (100 = growth as untreated, 0 = no growth, -100 = all killed)
Conditions: 10 µM unless noted
Compounds without any hit were thinned out: in the full panel of roughly 83,000, 20% have a hit.
Lab note: compare growth with 70%, writing label 1 if less and label 0 if equal or more.

INSERT INTO results (molecule, answer_label) VALUES
  ('Cc1ccccc1[C@H]1C(C(=O)c2ccc(Cl)cc2)C2(N[C@@H]1c1ccccc1)C(=O)Nc1ccc(Cl)cc12 (some centres undefined)', 'label 1'),
  ('COc1c(F)ccc(C(=O)Nc2ccc3nc(NC(=O)C4CCCN(S(=O)(=O)c5ccc(Br)s5)C4)sc3c2)c1F (centres undefined)', 'label 1'),
  ('CC(C)C(C(=O)O)n1c(O)c(/C=C2/C=c3cc4c(cc3=NC2=O)OCO4)sc1=S (centres undefined)', 'label 0'),
  ('CC(=O)c1cccc(NC(=O)CCC(=O)NS(=O)(=O)c2ccc(C)cc2)c1', 'label 0'),
  ('CCC(C)(C)c1ccc(OCCCCCCN2CCN(c3ccncc3)CC2)cc1', 'label 1'),
  ('c1ccc(-c2csc(Nc3cccc(Nc4nc(-c5ccccc5)cs4)c3)n2)cc1', 'label 1'),
  ('COc1cc(C2CC(c3cc(OC)c(OC)c(OC)c3)=NN2c2ccccc2)ccc1OCc1ccc(C)cc1 (centres undefined)', 'label 0'),
  ('N#Cc1cnn(C(=O)c2ccccc2Br)c1NC(=O)c1ccc(Br)cc1Cl', 'label 0'),
  ('O=C(NN1C(=O)/C(=C/C=C/c2ccc([N+](=O)[O-])o2)SC1=S)c1ccc(Cl)cc1', 'label 1'),
  ('C=C1CCC2C3(C)COC(c4cc(F)cc(F)c4)OC3CCC2(C)C1CC(O)C1=CCOC1=O (centres undefined)', 'label 1'),
  ('C[C@H](Nc1nc(NCCc2ccccc2)nc2ccccc12)c1ccccc1', 'label 1'),
  ('COc1ccc(C(=O)/C=C/c2cc3c(cc2Br)OCO3)cc1S(N)(=O)=O', 'label 1'),
  ('CCN(CC)c1ccnc(CNCCSC(c2ccccc2)(c2ccccc2)c2ccc(C)cc2)c1', 'label 1'),
  ('O=C(N/N=C/c1ccc(-c2ccc(O)cc2)o1)c1[nH]c2ccc(Br)cc2c1-c1ccccc1', 'label 1'),
  ('COc1ccc(/C=C/c2nc3ccccc3nc2Nc2cccc(C)c2)cc1', 'label 0'),
  ('COc1ccc2[nH]cc(-c3nnc(N)nc3-c3c[nH]c4ncc(Br)cc34)c2c1', 'label 0'),
  ('O=C(/C=C/c1cccc(OCc2ccc(F)cc2)c1)c1nc2ccccc2[nH]1', 'label 1'),
  ('CC(=O)OCC1OC(OC2C(COC(C)=O)OC(n3cc(COc4ccc5ccc(=O)oc5c4)nn3)C(OC(C)=O)C2OC(C)=O)C(OC(C)=O)C(OC(C)=O)C1OC(C)=O (centres undefined)', 'label 0');

* * *

Tested on: CCRF-CEM leukemia
Assay: NCI-60 one-dose screen, 48 h (100 = growth as untreated, 0 = no growth, -100 = all killed)
Details: 10 µM unless noted
This is part of a sample that, as a whole, favours compounds with a hit. Of some 83,000 tested, about 20% had one in any assay.
Lab note: compare growth with 40%, writing MET if less and NOT MET if equal or more.

INSERT INTO measurements (compound, experimental_system, answer_label) VALUES
  ('O=C(N/N=C/c1ccc(-c2ccc(O)cc2)o1)c1[nH]c2ccc(Br)cc2c1-c1ccccc1', 'CCRF-CEM leukemia', 'MET'),
  ('O=C(Cn1nc(-c2ccccc2)ccc1=O)N/N=C/c1ccc(N2CCOCC2)cc1', 'CCRF-CEM leukemia', 'NOT MET'),
  ('Cc1cnc(C(=O)NNc2nc3cc(F)ccc3n3c(C(=O)N4CC5CC(C4)N5)ccc23)cn1', 'CCRF-CEM leukemia', 'MET'),
  ('O=C(N=Nc1c(O)[nH]c2ccc([N+](=O)[O-])cc12)c1ccc2nc(-c3ccccc3)[nH]c2c1', 'CCRF-CEM leukemia', 'MET'),
  ('Cn1cc(-c2nc(N)nnc2-c2c[nH]c3ccc(Br)cc23)c2cccnc21', 'CCRF-CEM leukemia', 'MET'),
  ('O=C(COc1ccc(NC(=O)Nc2ccc(Cl)c(Cl)c2)cc1)N=Nc1c(O)[nH]c2ccccc12', 'CCRF-CEM leukemia', 'MET'),
  ('COc1cc2oc(-c3cccc(C(=O)Nc4ccc(Cl)cc4)c3)cc(=O)c2c(OCCNC(=O)[C@H](CO)NC(=O)OC(C)(C)C)c1OC', 'CCRF-CEM leukemia', 'MET'),
  ('Cn1cc(-c2nnc(N)nc2-c2c[nH]c3ccccc23)c2cccnc21', 'CCRF-CEM leukemia', 'MET'),
  ('N#Cc1c(-c2ccc(Cl)cc2)nc2n[nH]c(-c3ccc(Cl)cc3)c2c1-c1cccs1', 'CCRF-CEM leukemia', 'MET'),
  ('COc1cc2c(c(OC)c1OC)C(=O)CC(c1cccc(NC(=O)c3cccc(NC(=O)[C@H](C)NC(=O)OC(C)(C)C)c3)c1)O2 (some centres undefined)', 'CCRF-CEM leukemia', 'MET'),
  ('COc1ccc2oc3c4[nH]c5ccccc5c4c4c(c3c2c1)C(=O)N(C(=O)OC(C)(C)C)C4=O', 'CCRF-CEM leukemia', 'MET'),
  ('Cc1ccc(NCC(=O)Cn2cc(COc3ccc(C=Nc4cnc5ccccc5c4)cc3)nn2)cc1', 'CCRF-CEM leukemia', 'NOT MET'),
  ('COc1cc(NC(=O)c2cccc(C3CCc4c(cc(OC)c(OC)c4OC)O3)c2)cc(OC)c1OC (centres undefined)', 'CCRF-CEM leukemia', 'MET'),
  ('COc1cc(/C=C2\C(=N)N=C(SCc3nc4ccccc4[nH]3)NC2=O)ccc1O', 'CCRF-CEM leukemia', 'NOT MET'),
  ('O=C(N1c2ccccc2Sc2ccccc21)n1ccc2cccnc21', 'CCRF-CEM leukemia', 'NOT MET'),
  ('O=C1CC(Sc2n[nH]c(-c3ccncc3)n2)C(=O)N1c1ccc(Br)cc1 (centres undefined)', 'CCRF-CEM leukemia', 'NOT MET'),
  ('CC(/C=C1\SC(=S)N(CCCC(=O)NC(CC(C)C)C(=O)O)C1=O)=C\c1ccccc1 (centres undefined)', 'CCRF-CEM leukemia', 'NOT MET'),
  ('NS(=O)(=O)c1ccc(-n2cc(-c3cccc(NC(=O)c4cc(Cl)cc(Cl)c4)c3)nn2)cc1', 'CCRF-CEM leukemia', 'NOT MET');

* * *

System: NCI-H460 lung
Assay: NCI-60 one-dose screen, 48 h (100 = growth as untreated, 0 = no growth, -100 = all killed)
Details: 10 µM unless noted
About 83,000 compounds went through this panel and 20% of them were active in at least one assay; those are over-represented in the sample as a whole.
outcome_measure: growth (%)

INSERT INTO measurements (compound, readout_value) VALUES
  ('COCOc1cc2oc(C(=O)N[C@@H](Cc3ccccc3)C(O)C(=O)NCc3ccccc3)c(C)c(=O)c2cc1OCOC (stereo partly drawn)', 9.45),
  ('Cc1ccc(NC(=O)CN2CCN(c3ncnc4c3cnn4-c3ccccc3)CC2)cc1', 74),
  ('COc1cc(/C=C/C(=O)c2ccccc2)ccc1Oc1nc(Nc2ccc(F)cc2)nc(N(C)C)n1', 18.1),
  ('COC1=C[C@]23CCC(=O)N2CCc2cc4c(cc2[C@@H]3[C@@H]1OC(=O)[C@H](C)O)OCO4', -5.4),
  ('COc1c(F)ccc(C(=O)Nc2ccc3nc(NC(=O)C4CCCN(S(=O)(=O)c5cccc(Cl)c5)C4)sc3c2)c1F (stereo not drawn)', 82),
  ('COc1ccc2oc3c4[nH]c5ccccc5c4c4c(c3c2c1)C(=O)N(C(=O)OC(C)(C)C)C4=O', 4.57),
  ('CCCCn1c(O)c(N=Nc2nc(-c3cc4ccccc4oc3=O)cs2)c2cc(Br)ccc21', 114),
  ('C=C1CC[C@@H]2[C@]3(C)COC(c4cn[nH]c4-c4cccc(Br)c4)O[C@@H]3CC[C@@]2(C)[C@@H]1C/C=C1/C(=O)OCC1O (stereo partly drawn)', -68.9);

* * *

System: OVCAR-4 ovarian
Experiment: NCI-60 one-dose screen, 48 h
Conditions: 10 µM unless noted
This is part of a sample that, as a whole, favours compounds with a hit. Of some 83,000 tested, about 20% had one in any assay. Activity calls are given as the source filed them. How the source made its calls: active means growth percent below 10; inactive means the rest.
Possible outcomes: active, inactive

INSERT INTO measurements (compound, answer_label) VALUES
  ('COc1ccc(C(=O)/C=C/c2ccccc2Cl)cc1S(N)(=O)=O', 'inactive'),
  ('Cc1ccc(C(=O)CSc2nc3ccc(C)cc3c(=O)n2-c2ccc(F)cc2)cc1', 'inactive'),
  ('CN(C)CCCNC(=O)c1cc(NC(=O)c2cc(NC(=O)c3ccc(C#Cc4ccccc4)cc3)cn2C)cn1C', 'inactive'),
  ('Cn1nc(C(F)(F)F)cc1-c1cc(Cl)c(COc2ccc(Cl)cc2)c(-c2ccc(Cl)c(C(F)(F)F)c2)c1O', 'inactive'),
  ('NS(=O)(=O)c1ccc(-n2cc(-c3cccc(NC(=O)c4cc(C(F)(F)F)cc(C(F)(F)F)c4)c3)nn2)cc1', 'inactive'),
  ('Cc1cc2c(cc1Cl)C(=O)/C(=C/c1ccccc1)O2', 'active'),
  ('CC1(C)CC[C@]2(C(=O)Nc3ccc(F)cc3)CC[C@]3(C)C(=CCC4[C@@]5(C)C[C@@H](O)[C@H](O)[C@@](C)(CO)C5CC[C@]43C)C2C1 (stereo partly drawn)', 'inactive'),
  ('COc1ccc(C2(SCCNCc3cc(N(C)C)ccn3)c3ccccc3C=Cc3ccccc32)cc1', 'inactive'),
  ('CC(=O)N1CCN(Cc2ccc3c(NNC(=O)c4cnccn4)nc4cc(F)ccc4n23)CC1', 'inactive'),
  ('C=C1CC[C@@H]2[C@]3(C)COC(c4cn[nH]c4-c4cccc(Br)c4)O[C@@H]3CC[C@@]2(C)[C@@H]1C/C=C1/C(=O)OCC1O (stereo partly drawn)', 'inactive'),
  ('CN(C)CCOc1ccc(C(=O)C2[C@H](c3ccc(Cl)cc3)[C@@H](c3ccccc3)NC23C(=O)Nc2ccc(Br)cc23)cc1 (stereo partly drawn)', 'inactive'),
  ('COc1cc(C2CC(c3ccc(S(=O)(=O)NCCNc4nc(Nc5ccc(F)cc5)nc(N(C)C)n4)cc3)=Nc3c(N)nc(N)nc3N2)cc(OC)c1OC (stereo not drawn)', 'inactive'),
  ('N#Cc1c(-c2cccc3ccccc23)cc(-c2cccc(OCC(=O)O)c2)[nH]c1=O', 'inactive'),
  ('COc1ccc(NC(=O)[C@H](C)N)cc1C(=O)Nc1cccc(C2CC(=O)c3c(cc(OC)c(OC)c3OC)O2)c1 (stereo partly drawn)', 'inactive'),
  ('COc1cc(OC)cc(C(=O)Nc2cccc(-c3cn(-c4ccc(S(N)(=O)=O)cc4)nn3)c2)c1', 'inactive'),
  ('Cc1cc2nc3c4ccccc4n(CCCN(C)C)c3nc2cc1C', 'active'),
  ('COc1cc(/C=C2\C(=N)N=C(SCc3nc4ccccc4[nH]3)NC2=O)ccc1O', 'inactive'),
  ('CCCCSc1nc(Nc2ccc(S(N)(=O)=O)cc2)c(C#N)c(-c2ccc(Cl)cc2)n1', 'active');
